These data points were gathered from ChEMBL document CHEMBL2157909.

System: Fusarium oxysporum
test-details: Antifungal activity against Fusarium oxysporum ATCC 48112 after 72 to 96 hrs by two fold serial dilution method
Format: functional
reported-metric: MIC (µg/mL)
Number only, in µg/mL; omit the unit.

Sample answers from the record:
C=CCN1[C@H](c2ccccc2)[C@@H](C)/C(=N/OCc2ccccc2)[C@@H](C)[C@@H]1c1ccccc1 (relative stereo) = 50
C=CCN1[C@@H](c2ccccc2)C(C)(C)C(=O)C[C@H]1c1ccccc1 (relative stereo) = 50
C=CCN1[C@H](c2ccccc2)CC(=O)[C@@H](C)[C@@H]1c1ccccc1 (relative stereo) = 100

Now for another entry.
Please state recorded MIC (tested on Fusarium oxysporum) of C=CCN1[C@H](c2ccccc2)C/C(=N\OCc2ccccc2)[C@@H](C)[C@@H]1c1ccccc1 (relative stereo) 200
